Endpoint summary: pIC50, system: Coagulation factor X (Homo sapiens, UniProt P00742), multiple sources combined.
pIC50: −log10 of the molar value.
Measurement type: pIC50

{"columns": ["Compound", "Measurement"],
 "data": [
  ["CCOc1cccc(-c2ccc(C(=O)NC(/C=C/c3ccccc3)C(Cc3cccc(C(=N)N)c3)C(=O)OC)cc2)c1 (stereo unspecified)", 6.74],
  ["CC(C)CNC(=O)c1ccc(-c2ccc(O)cc2C(=O)Nc2ccc(C(=N)N)cc2)c(C(=O)O)c1", 4.30],
  ["CC(C)CNC(=O)c1ccc(-c2ccc(Cc3cccs3)cc2C(=O)Nc2ccc(C(=N)N)cc2)c(C(=O)O)c1", 5.09],
  ["CC1(C)[C@H](O)CC[C@@]2(C)[C@@H]3CC[C@](C)([C@@H](O)CO)C=C3CC[C@H]12", 4.94],
  ["COC(=O)CN1CC[C@H](NC(=O)c2cc3cc(Cl)ccc3[nH]2)[C@H](NC(=O)c2nc3c(s2)CN(C)CC3)C1", 7.25],
  ["CN1CCc2nc(C(=O)N[C@@H]3CCC[C@H]3NC(=O)c3cc4cc(Cl)ccc4[nH]3)sc2C1 (relative stereo)", 7.07],
  ["O=C(CCc1ccc2[nH]c(-c3ccc(Cl)s3)nc2c1)Nc1ccc(N2CCOCC2=O)c(Cl)c1", 8.15],
  ["CC(C)CNC(=O)c1ccc(-c2ccc(-c3nccs3)cc2C(=O)Nc2ccc(C(=N)N)cc2)c(C(=O)O)c1", 6.64],
  ["CCN(CC)C(=O)c1cccc(-c2ccc3c(c2)C[C@H]2[C@H]3[C@@H](CCCCC(=N)N)C(=O)N2C(=O)OCCCc2ccccc2)c1", 5.44],
  ["CN(C)C(=N)c1ccc(C(=O)Nc2c(C(=O)Nc3ccc(Cl)cn3)cc(Cl)cc2N(C)C)cc1", 9.30],
  ["CCN(CC)Cc1ccc(C(=O)N(CCc2ccccc2OC)[C@@H]2CCNC2)cc1", 4.00],
  ["N=C(N)NCCCC(NC(=O)CN1CCN(S(=O)(=O)c2cccc3cccnc23)CC1=O)C(=O)c1nccs1 (stereo unspecified)", 8.70],
  ["CN(C(=O)[C@@H]1Cc2ccccc2CN1C(=O)CCc1ncc(-c2ccc(Cl)cc2)o1)c1ccc(N2CCCCC2=O)cc1", 3.99],
  ["CC(=N)N1CCC(Oc2ccc(N(Cc3nc4cc(C(=N)N)ccc4n3CC(=O)NC(C)(C)c3ccccc3)C(=O)c3ccc(C(=O)O)cc3)cc2)CC1", 6.70],
  ["CN1CCc2cc(C(=O)N3CCN(S(=O)(=O)c4ccc5cc(Cl)ccc5c4)CC3)oc2C1", 6.26],
  ["Cc1cc2cc(N=C(NC#N)N[C@H]3CCCCN(CC(=O)N4CCCC4)C3=O)cc(C)c2o1", 7.68]
]}
